What Plant response rating was measured for each of the following?
- Tested on: wheat, spring (spring wheat, Triticum aestivum)
- measurement-notes: Test D pre-/postemergence controlled growth environment herbicide test
- Assay type: in vivo
- assay-conditions: Preemergence, 62 g ai/ha, scale 0 to 100
- Excerpt: […]
The answer should be a number; do not append a unit.

Q) Give me measured Plant response rating, please, for this compound: Cc1cc(=O)n(-c2ccc(C(F)(F)F)cc2)nc1Cc1ccnc(C(F)(F)F)c1 [Compound 2]
A) 0

Q) Give me measured Plant response rating, please, for this compound: Cc1cc(=O)n(-c2ccc(F)cc2)nc1Cc1ccnc(C(F)(F)F)c1 [Compound 1]
A) 0

Q) Give me measured Plant response rating, please, for this compound: COc1cc(=O)n(-c2ccc(F)cc2)nc1Cc1ccnc(C(F)(F)F)c1 [Compound 17]
A) 15

Q) Give me measured Plant response rating, please, for this compound: Cc1cc(=O)n(-c2ccc(F)cc2)nc1Oc1ccnc(C(F)(F)F)c1 [Compound 14]
A) 0
